Each entry below lists one item and its recorded IC50 value.
# targetOrSystem: C5a receptor (Homo sapiens)
# methodSummary: Calcium Mobilization Assay (C5a-induced Ca2+ mobilization, FLIPR, differentiated U937 cells)
# setupConditions: […] recombinant human C5a, 20 min pre-incubation, multiple values = duplicate experiments, read-out: C5a Induced Ca Mobil. Average IC50
endpointLabel: IC50 (nM)

• CCc1cccc(CC)c1-c1cc(OC)c2c(n1)CCCC2Nc1cc(OC)ccc1Cl (centres unmarked) [Compound 32] = 380
• CCc1cccc(CC)c1-c1cc(OC)c2c(n1)CCCC2N1CCCc2ccccc21 (centres unmarked) [Compound 65] = 2430
• CCc1cccc(CC)c1-c1cc(OC)c2c(n1)CCCC2N(C)c1cccc2cc(OC)ccc12 (centres unmarked) [Compound 22] = 176
• CCc1cccc(CC)c1-c1cc(OC)c2c(n1)CCCC2Oc1cc(OC)ccc1C (centres unmarked) [Compound 29] = 338
• CCc1cccc(CC)c1-c1cc(OC)c2c(n1)CCCC2Nc1ccccc1CO (centres unmarked) [Compound 15] = 177
• CCc1cccc(CC)c1-c1cc(OC(C)C)c2c(n1)CCCC2Nc1cc(OC)ccc1C (centres unmarked) [Compound 18] = 137
• CCc1cccc(CC)c1-c1cc(CC)c2c(n1)CCCC2N(CC)c1cccc2ccccc12 (centres unmarked) [Compound 23] = 191

----------
# targetOrSystem: C5a receptor (Homo sapiens, UniProt P21730)
# methodSummary: Calcium Mobilization Assay (C5a-induced Ca2+ mobilization, FLIPR, differentiated U937 cells)
# setupConditions: […] recombinant human C5a, 20 min pre-incubation, multiple values = duplicate experiments, read-out: C5a Induced Ca Mobil. Average IC50
pIC50: −log10 of the molar value.
endpointLabel: pIC50

- CCc1cccc(CC)c1-c1cc(OC)c2c(n1)CCCC2N(C)c1cccc2c1CCC2 (centres unmarked) [Compound 72]: 5.42
- CCc1cccc(CC)c1-c1cc(OC)c2c(n1)CCCC2N(C)c1cc(OC)ccc1Cl (centres unmarked) [Compound 47]: 6.02
- CCc1cccc(CC)c1-c1cc(OC)c2c(n1)CCCC2Nc1cc(C(F)(F)F)ccc1C (centres unmarked) [Compound 28]: 6.54
- CCc1cccc(CC)c1-c1cc(OC)c2c(n1)CCCC2N(C)c1c(C)ccc2ccccc12 (centres unmarked) [Compound 52]: 5.83
- CCc1cccc(CC)c1-c1cc(OC)c2c(n1)CCCC2Nc1cc(F)ccc1C (centres unmarked) [Compound 50]: 5.86

----------
# targetOrSystem: C5a receptor (Homo sapiens)
# methodSummary: [125I]-C5a Radioligand Binding Assay (competition binding, differentiated U937 cells)
# setupConditions: read-out: [125I]-C5a Binding % Inhibition 1 μM, test compound 1 μM; [125I]-C5a 0.05 nM; U937 cells; multiple values = duplicate experiments
endpointLabel: inhibition at 1 µM (%)

- CCc1cccc(CC)c1-c1cc(OC)c2c(n1)CCCC2N1CCc2cc(OC)c(OC)cc2C1 (centres unmarked) [Compound 127]: -9
- CCc1cccc(CC)c1-c1cc(OC)c2c(n1)CCCC2N(C)c1cc(-c2ccccc2)ccc1C (centres unmarked) [Compound 122]: 81
- CCc1ccccc1-c1cc(OC)c2c(n1)CCCC2N(CC)c1cccc2ccccc12 (racemic) [Compound 39]: 81
- CCc1cccc(CC)c1-c1cc(OC)c2c(n1)CCCC2Nc1ccc(Cl)cc1CO (centres unmarked) [Compound 9]: 91
- CCc1cccc(CC)c1-c1cc(OC)c2c(n1)CCCC2N(C)c1cc(C)ccc1C (centres unmarked) [Compound 40]: 88
- CCc1cccc(CC)c1-c1cc(OC)c2c(n1)CCCC2Nc1cc(Cl)ccc1C (centres unmarked) [Compound 53]: 85
- COc1cc(-c2c(C)cccc2C)nc2c1C(N(C)c1ccc(Cl)c3ccccc13)CCC2 (centres unmarked) [Compound 48]: 85
- CCN(c1cccc2ccccc12)C1CCCc2nc(-c3ccsc3)cc(OC)c21 (centres unmarked) [Compound 134]: -8
- CCc1cccc(CC)c1-c1cc(OC)c2c(n1)CCCC2Nc1cccc(OC)c1 (centres unmarked) [Compound 81]: 55
- CCc1cccc(CC)c1-c1cc(OC)c2c(n1)CCCC2Nc1cc(-c2ccccc2)ccc1C (centres unmarked) [Compound 66]: 83
- COc1ccc2cccc(N(C)C3CCCc4nc(-c5c(C)cccc5C)cc(OC)c43)c2c1 (centres unmarked) [Compound 116]: 87
- CCc1cccc(CC)c1-c1cc(OC)c2c(n1)CCCC2Nc1ccccc1C#N (centres unmarked) [Compound 74]: 19
- CCc1cccc(CC)c1-c1cc(OC)c2c([n+]1[O-])CCCC2N(CC)c1cccc2ccccc12 (racemic) [Compound 19]: 81
- CCc1cccc(CC)c1-c1cc(OC)c2c(n1)CCCC2OCc1ccccc1 (centres unmarked) [Compound 86]: 49
- COc1cc(-c2c(C)cccc2C)nc2c1C(N(C)c1cccc3c1CCN(C)C3)CCC2 (centres unmarked) [Compound 112]: 36
- COc1cc(-c2c(C)cccc2C)nc2c1C(N(C)c1cccc(Cl)c1C)CCC2 (centres unmarked) [Compound 115]: 75
- CCc1cccc(CC)c1-c1cc(OC)c2c(n1)CCCC2N1CCc2cccc(C(=O)OC)c2C1 (centres unmarked) [Compound 44]: 77

----------
# targetOrSystem: UniProt:P21730
# methodSummary: Calcium Mobilization Assay (C5a-induced Ca2+ mobilization, FLIPR, differentiated U937 cells)
# setupConditions: […] recombinant human C5a, 20 min pre-incubation, multiple values = duplicate experiments, read-out: C5a Induced Ca Mobil. Average IC50
endpointLabel: IC50 (µM)

* CCc1cccc(CC)c1-c1cc(OC)c2c(n1)CCCC2N(C(C)=O)c1cccc2ccccc12 (stereo not shown) | 6.17
* CCc1cccc(CC)c1-c1cc(OC)c2c(n1)CCCC2N1CCc2cccc(C(F)(F)F)c2C1 (stereo not shown) | 0.266

----------
# targetOrSystem: C5a receptor (Homo sapiens, UniProt P21730)
# Sequence (P21730 1-350): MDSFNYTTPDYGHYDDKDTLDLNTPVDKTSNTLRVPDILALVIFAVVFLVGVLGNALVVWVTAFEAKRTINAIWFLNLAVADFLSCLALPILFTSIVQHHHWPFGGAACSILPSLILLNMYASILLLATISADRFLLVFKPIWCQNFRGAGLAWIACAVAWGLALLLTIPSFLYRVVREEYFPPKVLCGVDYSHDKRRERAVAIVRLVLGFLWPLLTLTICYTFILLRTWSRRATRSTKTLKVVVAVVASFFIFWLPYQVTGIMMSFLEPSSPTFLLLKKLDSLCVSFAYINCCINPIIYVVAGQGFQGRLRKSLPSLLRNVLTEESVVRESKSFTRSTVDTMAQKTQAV
# methodSummary: biochemical
pKi: −log10 of the molar value.
endpointLabel: pKi

• CCc1cccc(CC)c1-c1cc(OC)c2c(n1)CCCC2N(C)Cc1cccc2ccccc12 (stereo not drawn) = 6.39
• CCN(c1cccc2ccccc12)C1CCCc2nc(-c3c(OC)cccc3OC)cc(OC)c21 (stereo not drawn) = 5.94
• CCc1cccc(CC)c1-c1cc(OC)c2c([n+]1[O-])CCCC2N(CC)c1cccc2ccccc12 (racemic) = 6.97
• CCc1cccc(CC)c1-c1cc(OC)c2c(n1)CCCC2N(C)c1cccc2ccccc12 (racemic) = 8.14
• CCc1cccc(CC)c1-c1ccc2c(n1)CCCC2N(CC)c1cccc2ccccc12 (racemic) = 5.97
• CCc1cccc(CC)c1-c1cc(OC)c2c(n1)CCCC2N(C)C1Cc2ccccc2C1 (stereo not drawn) = 5.69
• CCc1ccccc1-c1cc(OC)c2c(n1)CCCC2N(CC)c1cccc2ccccc12 (racemic) = 7.07
• CCc1cccc(CC)c1-c1cc(OC)c2c(n1)CCCC2N(CC)Cc1ccccc1 (stereo not drawn) = 6.02
• CCc1cccc(CC)c1-c1cc(OC)c2c(n1)CCCC2N1Cc2ccccc2C1 (stereo not drawn) = 5.77

----------
Entries and their inhibition at 1 µM values follow.
# targetOrSystem: C5a receptor (Homo sapiens, UniProt P21730)
# methodSummary: [125I]-C5a Radioligand Binding Assay (competition binding, differentiated U937 cells);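 also: cells preincubated with compound 30 min at room temperature, then 60 min at 4 °C with radioligand, bound counts read by scintillation, nonspecific binding defined with 100 nM C5a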
# setupConditions: read-out: [125I]-C5a Binding % Inhibition 1 μM, test compound 1 μM; [125I]-C5a 0.05 nM; U937 cells; multiple values = duplicate experiments
endpointLabel: inhibition at 1 µM (%)

• CCc1cccc(CC)c1-c1cc(OC)c2c(n1)CCCC2N1CCc2c(Cl)cccc2C1 (centres unmarked) [Compound 56] = 84
• CCc1cccc(CC)c1-c1cc(OC)c2c(n1)CCCC2Nc1cc(OC)ccc1C (centres unmarked) [Compound 11] = 88
• COc1cc(-c2c(C)cccc2C)nc2c1C(Oc1cc(C(C)C)ccc1C)CCC2 (centres unmarked) [Compound 111] = 82
• COc1cc(-c2c(C)cccc2C)nc2c1C(N(CC#N)c1cccc3ccccc13)CCC2 (centres unmarked) [Compound 49] = 59
• CCc1cccc(CC)c1-c1cc(OC)c2c(n1)CCCC2N(C)c1cccc2ccccc12 (racemic) [Compound 20] = 84
• CCc1cccc(CC)c1-c1cc(OC)c2c(n1)CCCC2N(C)N1CCCc2ccccc21 (centres unmarked) [Compound 54] = 74
• CCc1cccc(CC)c1-c1cc(OC)c2c(n1)CCCC2N(C)Cc1cccs1 (centres unmarked) [Compound 94] = 56
• CCN(c1cccc2ccccc12)C1CCCc2nc(-c3cccc4ccccc34)cc(OC)c21 (centres unmarked) [Compound 78] = 71
